experiment: Human HepG2 cell viability assay in 384 well format; format: toxicity, cell-based; design: dose 125 nL, time 70.5 hour; concentration not given beside the values; details: HepG2 cells, read-out: Inhibition
Measured Parameter: cytotoxicity at 70.5 h

1. Cc1csc(CCNCc2cnc3c(c2)c(C)nn3C)n1    5.91%
2. O=C1CSc2ccc(C(=O)N3CCCC(n4cccn4)C3)cc2N1 (stereo unspecified)    -0.55%
3. Cc1ccc([C@]2(O)CC[C@H]3CN(Cc4ccncc4)C[C@H]32)nc1    36%
4. Cc1c(Cl)cccc1NC(=O)N1CCN(Cc2ccccn2)CC1    -3.15%
5. CCCN(Cc1ccccc1C)C(CC)CO (stereo unspecified)    -7.79%
6. CN(C)C(=O)c1ccc2c(c1)N(C)C(CC(=O)NC(C)(C)CO)CO2 (stereo unspecified)    18.8%

====

Recorded cytotoxicity at 70.5 h for the following compounds
test: Human HepG2 cell viability assay in 384 well format; format: toxicity, cell-based; design: dose 125 nL, time 70.5 hour; concentration not given beside the values; conditions: HepG2 cells, read-out: Inhibition
Measured Parameter: cytotoxicity at 70.5 h (%)

1) CCn1nc(CC(C)C)cc1C(=O)N1CC(c2ccncc2)C1    -4.86
2) Cc1cc(C(F)(F)F)nc(N2CCN3CCCC3C2)n1 (stereo unspecified)    -10.5
3) c1cnc(NCc2nnn3c2CN(CC2CC2)CCC3)nc1    -4.25
4) O=C1NC(c2ccccc2)=N[C@@]12CC[C@@H]1CN(Cc3ccco3)C[C@@H]12    -5.19
5) CN(c1ccc(CNC(=O)c2c[nH]c(=O)c(Cl)c2)cc1)C1CCCCC1    5.49
6) Cc1ncccc1C(=O)Nc1cccc(C[S+](C)[O-])c1C (stereo unspecified)    0.697

====

Measured cytotoxicity at 70.5 h, listed per entry for reference.
test: Human HepG2 cell viability assay in 384 well format; type: toxicity, cell-based; parameters: dose 125 nL, time 70.5 hour; concentration not given beside the values; conditions: HepG2 cells, read-out: Inhibition
Measured Parameter: cytotoxicity at 70.5 h (%)

1) COc1cccc(-n2cc(CN(C)C(=O)c3cc[nH]n3)cn2)c1    -6.6
2) O=C(CN1CCc2cncnc2C1)NC(C1CC1)C1CC1    -12.3
3) COCc1ccccc1NCc1csc(NC(C)=O)n1    -7.46
4) CC(C)N1CCC(N2CCCC(C(=O)NCC3(O)CCCCC3)C2)CC1 (configuration not stated)    -3.9
5) Cc1cc(N2CCCN(Cc3ccc(C)o3)CC2)ccn1    -3.18
6) COc1ccccc1CC(=O)NS(=O)(=O)c1cncc(Br)c1    4.46
7) CCCc1cc(=O)n(CC(=O)NCCOC)c(-n2nc(C)cc2C)n1    -0.382
8) Cc1cn2c(n1)C(CNCc1ccc(C)s1)CCC2 (configuration not stated)    8.09
9) O=C(CN1CC(c2nc(C3CC3)no2)C1)NCC1CCCO1 (configuration not stated)    3.91
10) CCCS(=O)(=O)N1CCN(CCCO)CC1    0.836
11) CC(=O)NCc1ccc(C(=O)N2CCCC2c2c(C)nn(C)c2C)o1 (configuration not stated)    -9.03
12) O=C(O)CNC(=O)Cc1csc(-c2cccc(Cl)c2)n1    21.1

====

test: Human HepG2 cell viability assay in 384 well format; assay type: toxicity, cell-based; set-up: dose 125 nL, time 70.5 hour; concentration not given beside the values; settings: HepG2 cells, read-out: Inhibition
Measured Parameter: cytotoxicity at 70.5 h (%)

1. COc1cc(CN2CC[C@@H](N3CCCCCC3)[C@H](O)C2)cc(Cl)c1OC    -4.33
2. Cc1sc2c(C3CCCNC3)nc(Nc3cccc(F)c3)n2c1C (stereo unspecified)    -5.08
3. CC(C)OCc1ccc(CNC(=O)CC(F)(F)F)cc1    -7.73
4. COc1ccc(C[C@H]2CN(c3cc(OC)ncn3)CC[C@@H]2OC)cc1    4.78
5. CC(C)c1noc(-c2ccc(NCc3noc(C(C)C)n3)nc2)n1    -5.44
6. Cc1nn(-c2ccccc2)c2c1c(C(F)F)cc(=O)n2CC(=O)O    -9.31

====

experiment: Human HepG2 cell viability assay in 384 well format; format: toxicity, cell-based; set-up: dose 125 nL, time 70.5 hour; concentration not given beside the values; conditions: HepG2 cells, read-out: Inhibition
Parameter cytotoxicity at 70.5 h: see the listing below.
Measured Parameter: cytotoxicity at 70.5 h

1) Cc1ncsc1CNC(=O)CCN1CCN(c2ccccn2)CC1    -8.25%
2) Cn1cc(CN2C[C@@H]3COC[C@H](C(=O)Nc4cccnc4)[C@@H]3C2)cn1    44.2%
3) CN1C2(CCN(Cc3ccc(F)cc3)C2)c2ccccc2S1(=O)=O (centres undefined)    13.5%
4) Cc1ccc(N2CCCC3(CCN(C(=O)C4CC4)C3)C2)nn1 (centres undefined)    -3.58%
5) Cc1ccc(CN2CCC3(CCCN(S(C)(=O)=O)C3)C2)o1 (centres undefined)    -12.7%
6) N#Cc1ccc(OCCN2CCNC(=O)C2c2cccs2)cc1 (centres undefined)    -6.87%
7) COCC1c2c(cnn2C)CCN1C(=O)c1cc(C)on1 (centres undefined)    -0.669%
8) CCc1csc(C2CCCN(C(=O)c3cnc[nH]3)C2)n1 (centres undefined)    -7.63%
9) O=C(C1CCCC1)N1CCO[C@@H]2CNC[C@@H]21    12.2%
10) COCCCN(C)Cc1nc2c(cnn2C)c(=O)[nH]1    42.4%
11) CCn1cnnc1C1CCN(C(=O)c2ccc3cc[nH]c3c2)CC1    5.48%
12) Cc1ccc(-c2cc(N)c(=O)n(CC(=O)NC3CCCCC3)n2)s1    -17.9%
13) c1ccc(-c2nnc(N3CCCC4(CCOC4)C3)s2)cc1 (centres undefined)    1.41%
14) CCCc1ccc(C(=O)N2CCc3c(nc(C)nc3N(C)C)C2)cc1    -0.957%
15) CC(C)CC(=O)N1CC(=O)c2sc(Nc3ccc(C#N)cc3)nc2C1    0.0296%
16) CC1CCN(S(=O)(=O)c2ccc(C(=O)N3CCSCC3)cc2)CC1    -13%
17) Cc1sc(-c2ccco2)nc1C(=O)N(CC(N)=O)C1CCCC1    -2.05%
18) OCc1ccc(-c2nccn2CCC2=CCCCC2)o1    -9.58%
19) NC(=O)CCC1CCCN(Cc2cnc(N3CCCCC3)nc2)C1 (centres undefined)    -3.37%
20) CN(CC(=O)N1CCCC1Cn1cccn1)c1cnccn1 (centres undefined)    -19.4%
21) COc1cc(C)nc(N2CCN(C(=O)CCc3ccncc3)CC2)n1    28%
22) CC(C)C(C)(O)CNC(=O)Nc1ccccn1 (centres undefined)    -1.52%
23) CCc1ccsc1C(=O)NC(C#N)CC(C)C (centres undefined)    -2.59%
24) O=C(C1CCC1)N1CC[C@@H]2CN(Cc3cccnc3)S(=O)(=O)[C@@H]2CC1    -4.67%

====

experiment: Human HepG2 cell viability assay in 384 well format; format: toxicity, cell-based; parameters: dose 125 nL, time 70.5 hour; concentration not given beside the values; conditions: HepG2 cells, read-out: Inhibition
Measured Parameter: cytotoxicity at 70.5 h (%)

1) Cc1ccc2c(c1)C(NC(=O)N(C)C)CC21CCN(C(C)C)CC1 (configuration not stated)    -5.2
2) Cc1csc(CNC(=O)Cc2ccc3c(c2)OCCO3)n1    -5.71
3) O=C(NCc1cc(F)ccc1F)Nc1ccn(CC(F)F)n1    0.0811
4) O=C1CC(N(C(=O)CCc2cc(F)ccc2F)C2CC2)C(=O)N1 (configuration not stated)    -7.39
5) COCCN(C)C[C@@H]1CN(C(=O)c2ccc(OC)c(F)c2)C[C@@H]1CO    -7.53
6) COc1ccccc1CN1CC(O)CN(S(=O)(=O)C(C)C)CC1=O (configuration not stated)    16.7
7) CCN(CC)S(=O)(=O)N1CCCN(CC(=O)NC(C)C)CC1    6.63
8) CN(CC1CCCCO1)c1nc(-c2cccnc2)nc2c1CCNC2 (configuration not stated)    -17.5
9) CNC(=O)NC(=O)CN1CCC(c2c[nH]c3ccc(OC)cc23)CC1    -5.75
10) COCCNC(=O)Cn1cc2c(n1)c(C)nn2C    -9.77
11) O=C1Nc2ccccc2C12CCN(Cc1cccs1)CC2    -2.74
12) CCN(CC)S(=O)(=O)N(C)Cc1ccc2c(c1)OCCO2    -2.26
13) CC(C)c1cccc(-n2cc(O)c(C(=O)NCCC(=O)N(C)C)n2)c1    -6.63
14) Cn1ccnc(Sc2ccc(O)cc2)c1=O    -14.3
15) COc1ccc(CNCc2ccnc(N3CCCC3)c2)c(OC)c1    -1.69
16) CS(=O)(=O)N1CCCC(C(=O)Nc2cnn(COCC(F)(F)F)c2)C1 (configuration not stated)    3.12
17) Cn1cccc1-c1cc(C(=O)N2CCCC2c2nccs2)[nH]n1 (configuration not stated)    -0.138
18) O=C(CN1CCCC(Cn2cncn2)C1)NCCOc1ccccc1 (configuration not stated)    -2.13
19) CN(CC(N)=O)C(=O)c1csc(Br)c1    -7.59
20) CNCc1cn(C[C@H]2C[C@@H]3CCN2C[C@@H]3C(=O)NC2CCCCC2)nn1    -5.79
21) COC(=O)C(C)(C)NC(=O)c1cc(COc2ccccc2OC)[nH]n1    10.6
22) Cc1[nH]nc2ncc(C(=O)N3CCN(CC(O)C(C)(C)C)CC3)cc12 (configuration not stated)    -1.93
23) COc1ccc(Cl)cc1CNC(=O)CN1CCC2(CCOC2)C1 (configuration not stated)    20
24) Cc1ccccc1CC(=O)N1CC[C@@](O)(CNS(C)(=O)=O)[C@H](O)C1    0.727
25) CC(C)N1CCN(C(=O)c2[nH]nnc2Nc2ccccc2F)CC1    16.4
26) CCC(CO)N(Cc1cccnc1)Cc1ccc(-c2ccn[nH]2)s1 (configuration not stated)    -7.15
27) O=C1CN([C@@H]2CC[C@@H](NS(=O)(=O)c3ccc(F)cc3)[C@H]2O)CCN1    4.31
28) CO[C@H]1CC[C@H]2[C@H]1OCCN2C(=O)c1ccc(C)nc1    -2.48
29) Cc1nc(C2CCCN(C(=O)CCCOc3cccc(F)c3)C2)no1 (configuration not stated)    -16.6
30) CCc1ccc(CN(C)C(=O)C(c2ccccc2F)N(C)C)nc1 (configuration not stated)    -7.7
31) CC(C)NC(=O)[C@@H]1C[C@H]2NCC[C@H]2O1    -7.3
32) Fc1ccc(CN2CCC(c3nccnc3-n3ccnc3)CC2)cc1    2.75
33) O=S(=O)(NCC1(O)CCOc2ccccc21)c1ccccc1Br (configuration not stated)    -0.163
34) CCc1nc(C2CCCN2C(=O)CCc2nc(C(C)(C)C)no2)no1 (configuration not stated)    15.3
35) CC(C)CNC(=O)c1nnsc1-c1ccccc1    -11.5
36) c1cnn(CCN2CCOC(Cn3cccn3)C2)c1 (configuration not stated)    -4.95
37) N#Cc1c(F)cccc1Nc1cnn(CC(N)=O)c1    -112
38) N#Cc1ccc(N2CCC(NS(=O)(=O)c3cccs3)CC2)c(F)c1    -9.83
39) OCc1ccc(CN2CCC(n3cc(C4CCCCC4)nn3)CC2)o1    -7.14
40) COc1cc(CNCC(O)c2ccc(F)c(F)c2)cc2c1OCO2 (configuration not stated)    29.9
41) O=C(CCC(=O)Nc1nnc(C2CCCCC2)s1)NCC1CCCO1 (configuration not stated)    -12.1
42) Cc1ncc(-c2ccnc(SCCN)n2)c(-c2ccco2)n1    21.8
43) O=C1c2cnc(N3CCC(O)CC3)nc2CN1Cc1cccc(F)c1    22
44) Cc1ccc(F)cc1S(=O)(=O)NCc1cccc(C(=O)N2CCCC2)c1    -2.82
45) CC1CCN(CCCNS(=O)(=O)c2cccc(F)c2)CC1    -13.7
46) COc1cc(C)nc(N2CCN(C(=O)c3ccc[nH]3)CC2)n1    -1.4
47) CC(C)N1CCC(c2n[nH]cc2S(C)(=O)=O)CC1    -10.2
